# Assay text: Oral bioavailability in mouse at 10 mg/kg
# Format: ADME, organism-based
# Particulars: in vivo
Result type: bioavailability

Kindly note the recorded bioavailability for `CCc1cccc(CC)c1NC(=O)c1nn(C)c2c1CCc1cnc(Nc3ccc(C(=O)N4CCCN(C)CC4)cc3OC(F)(F)F)nc1-2` , which is 22.4%

* * *

# Tested on: U2OS
# Assay text: Inhibition of mitosis in human U2OS cells assessed as histone H3 phosphorylation at Ser 10 residue after 2 hrs by immunoassay
# Assay type: functional, cell-based
Result type: log10 IC50 (log10 of the value in nM)
Log scale reminder: IC50 in nM, then log10 taken.

Answered cases to consult:
| Smiles | Reported value |
| --- | --- |
| CCc1cccc(CC)c1NC(=O)c1nn(C)c2c1CCc1cnc(Nc3ccc(C(=O)NCCN(C)C)cc3OC)nc1-2 | 1.08 |
| CCc1cccc(CC)c1NC(=O)c1nn(C)c2c1CCc1cnc(Nc3ccc(C(=O)NCCN(C)C)cc3OC(F)(F)F)nc1-2 | 2.04 |
| CCc1cccc(CC)c1NC(=O)c1nn(C)c2c1CCc1cnc(Nc3ccc(C(=O)N4CCC[C@H]4CN4CCCC4)cc3OC)nc1-2 | 1.11 |
| CCc1cccc(CC)c1NC(=O)c1nn(C)c2c1CCc1cnc(Nc3ccc(C(=O)N4CCCN(C)CC4)cc3OC)nc1-2 | 0.30 |
| CCc1cccc(CC)c1NC(=O)c1nn(C)c2c1CCc1cnc(Nc3ccc(C(=O)NC4CCN(C)CC4)cc3OC)nc1-2 | 1.20 |

# input for lookup
Kindly note the recorded log10 IC50 for `CCc1cccc(CC)c1NC(=O)c1nn(C)c2c1CCc1cnc(Nc3ccc(C(N)=O)cc3OC)nc1-2` , which is 0.60

* * *

# Assay text: Solubility of the compound at pH 7
# Format: physicochemical
# Particulars: buffer
Result type: solubility (µM)
The reply should contain only the number, in µM.

Kindly note the recorded solubility for `CCc1cccc(CC)c1NC(=O)c1nn(C)c2c1CCc1cnc(Nc3ccc(C(=O)N4CCC[C@H]4CN4CCCC4)cc3OC(F)(F)F)nc1-2` , which is 69

Kindly note the recorded solubility for `CCc1cccc(CC)c1NC(=O)c1nn(C)c2c1CCc1cnc(Nc3ccc(C(=O)NCCN(C)C)cc3OC(F)(F)F)nc1-2` , which is 27

Kindly note the recorded solubility for `CCc1cccc(CC)c1NC(=O)c1nn(C)c2c1CCc1cnc(Nc3ccc(C(=O)NC4CCN(C)CC4)cc3OC(F)(F)F)nc1-2` , which is 45

Kindly note the recorded solubility for `CCc1cccc(CC)c1NC(=O)c1nn(C)c2c1CCc1cnc(Nc3ccc(C(=O)N4CCC[C@@H]4CN4CCCC4)cc3OC)nc1-2` , which is 110

Kindly note the recorded solubility for `CCc1cccc(CC)c1NC(=O)c1nn(C)c2c1CCc1cnc(Nc3ccc(C(N)=O)cc3OC(F)(F)F)nc1-2` , which is 1

* * *

# Test system: U2OS
# Assay text: Inhibition of mitosis in human U2OS cells assessed as histone H3 phosphorylation at Ser 10 residue after 2 hrs by immunoassay
# Format: functional, cell-based
pIC50: recorded values
On this scale, pIC50 is minus log10 of a concentration expressed in M (mol/L).

| Smiles | pIC50 |
| --- | --- |
| CCc1cccc(CC)c1NC(=O)c1nn(C)c2c1CCc1cnc(Nc3ccc(C(=O)N4CCCN(C)CC4)cc3OC(F)(F)F)nc1-2 | 7.49 |
| CCc1cccc(CC)c1NC(=O)c1nn(C)c2c1CCc1cnc(Nc3ccc(C(=O)N4CCC[C@@H]4CN4CCCC4)cc3OC)nc1-2 | 7.96 |
| CCc1cccc(CC)c1NC(=O)c1nn(C)c2c1CCc1cnc(Nc3ccc(C(=O)N4CCC(N(C)C)CC4)cc3OC)nc1-2 | 8.70 |

# input for lookup
Kindly note the recorded pIC50 for `CCc1cccc(CC)c1NC(=O)c1nn(C)c2c1CCc1cnc(Nc3ccc(C(=O)NC4CCN(C)CC4)cc3OC(F)(F)F)nc1-2` , which is 7.49

* * *

IC50: recorded values
Sequence of the target: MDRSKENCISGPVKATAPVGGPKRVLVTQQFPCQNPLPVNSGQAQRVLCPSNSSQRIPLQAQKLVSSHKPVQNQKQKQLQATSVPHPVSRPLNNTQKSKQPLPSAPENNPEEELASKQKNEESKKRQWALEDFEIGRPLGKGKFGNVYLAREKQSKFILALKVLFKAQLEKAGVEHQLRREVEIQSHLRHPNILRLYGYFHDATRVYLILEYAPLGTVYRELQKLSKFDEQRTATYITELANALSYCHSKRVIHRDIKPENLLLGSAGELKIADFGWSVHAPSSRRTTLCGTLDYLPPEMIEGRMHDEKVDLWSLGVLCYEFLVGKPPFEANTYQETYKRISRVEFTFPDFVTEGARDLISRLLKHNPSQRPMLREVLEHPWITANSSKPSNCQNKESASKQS

Answered cases to consult:
| Smiles | IC50 |
| --- | --- |
| CCc1cccc(CC)c1NC(=O)c1nn(C)c2c1CCc1cnc(Nc3ccc(C(=O)N4CCC(N(C)C)CC4)cc3OC)nc1-2 | 0.484 µM |
| CCc1cccc(CC)c1NC(=O)c1nn(C)c2c1CCc1cnc(Nc3ccc(C(N)=O)cc3OC(F)(F)F)nc1-2 | > 10 µM |
| CCc1cccc(CC)c1NC(=O)c1nn(C)c2c1CCc1cnc(Nc3ccc(C(=O)N4CCC[C@H]4CN4CCCC4)cc3OC(F)(F)F)nc1-2 | > 10 µM |

# input for lookup
Kindly note the recorded IC50 for `CCc1cccc(CC)c1NC(=O)c1nn(C)c2c1CCc1cnc(Nc3ccccc3OC(F)(F)F)nc1-2` , which is > 10 µM

* * *

Target protein (sequence): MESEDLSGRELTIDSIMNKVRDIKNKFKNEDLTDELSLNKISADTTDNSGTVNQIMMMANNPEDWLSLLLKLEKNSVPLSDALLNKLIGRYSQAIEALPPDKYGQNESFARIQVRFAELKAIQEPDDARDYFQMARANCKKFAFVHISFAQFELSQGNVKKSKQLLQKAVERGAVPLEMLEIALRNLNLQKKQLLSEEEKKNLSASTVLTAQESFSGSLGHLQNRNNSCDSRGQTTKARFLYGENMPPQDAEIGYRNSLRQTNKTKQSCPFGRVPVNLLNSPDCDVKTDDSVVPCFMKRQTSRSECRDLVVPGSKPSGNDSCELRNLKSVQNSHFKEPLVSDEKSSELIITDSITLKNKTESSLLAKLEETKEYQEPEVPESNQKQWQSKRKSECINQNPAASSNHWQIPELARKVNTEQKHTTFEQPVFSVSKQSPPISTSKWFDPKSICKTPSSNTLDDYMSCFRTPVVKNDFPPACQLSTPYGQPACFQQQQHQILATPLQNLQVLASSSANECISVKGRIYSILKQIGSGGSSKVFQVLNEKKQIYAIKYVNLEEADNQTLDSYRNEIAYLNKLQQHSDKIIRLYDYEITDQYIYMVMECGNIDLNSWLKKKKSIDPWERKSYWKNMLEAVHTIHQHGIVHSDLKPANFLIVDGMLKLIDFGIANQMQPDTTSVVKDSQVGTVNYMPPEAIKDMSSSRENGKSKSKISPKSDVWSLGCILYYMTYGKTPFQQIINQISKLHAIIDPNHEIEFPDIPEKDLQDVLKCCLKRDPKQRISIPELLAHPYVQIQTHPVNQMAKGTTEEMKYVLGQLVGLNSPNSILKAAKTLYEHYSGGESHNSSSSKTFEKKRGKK
Result type: IC50 (nM)
The reply should contain only the number, in nM.

| Smiles | IC50, nM |
| --- | --- |
| CNC(=O)c1nn(C)c2c1CCc1cnc(Nc3ccccc3)nc1-2 | 2170 |
| CCc1cccc(CC)c1NC(=O)c1nn(C)c2c1CCc1cnc(Nc3ccc(C(=O)NC4CCN(C)CC4)cc3OC)nc1-2 | 84 |

# input for lookup
Kindly note the recorded IC50 for `CCc1cccc(CC)c1NC(=O)c1nn(C)c2c1CCc1cnc(Nc3ccc(C(=O)N4CCCN(C)CC4)cc3OC(F)(F)F)nc1-2` , which is 146

* * *

Protein target, amino acids: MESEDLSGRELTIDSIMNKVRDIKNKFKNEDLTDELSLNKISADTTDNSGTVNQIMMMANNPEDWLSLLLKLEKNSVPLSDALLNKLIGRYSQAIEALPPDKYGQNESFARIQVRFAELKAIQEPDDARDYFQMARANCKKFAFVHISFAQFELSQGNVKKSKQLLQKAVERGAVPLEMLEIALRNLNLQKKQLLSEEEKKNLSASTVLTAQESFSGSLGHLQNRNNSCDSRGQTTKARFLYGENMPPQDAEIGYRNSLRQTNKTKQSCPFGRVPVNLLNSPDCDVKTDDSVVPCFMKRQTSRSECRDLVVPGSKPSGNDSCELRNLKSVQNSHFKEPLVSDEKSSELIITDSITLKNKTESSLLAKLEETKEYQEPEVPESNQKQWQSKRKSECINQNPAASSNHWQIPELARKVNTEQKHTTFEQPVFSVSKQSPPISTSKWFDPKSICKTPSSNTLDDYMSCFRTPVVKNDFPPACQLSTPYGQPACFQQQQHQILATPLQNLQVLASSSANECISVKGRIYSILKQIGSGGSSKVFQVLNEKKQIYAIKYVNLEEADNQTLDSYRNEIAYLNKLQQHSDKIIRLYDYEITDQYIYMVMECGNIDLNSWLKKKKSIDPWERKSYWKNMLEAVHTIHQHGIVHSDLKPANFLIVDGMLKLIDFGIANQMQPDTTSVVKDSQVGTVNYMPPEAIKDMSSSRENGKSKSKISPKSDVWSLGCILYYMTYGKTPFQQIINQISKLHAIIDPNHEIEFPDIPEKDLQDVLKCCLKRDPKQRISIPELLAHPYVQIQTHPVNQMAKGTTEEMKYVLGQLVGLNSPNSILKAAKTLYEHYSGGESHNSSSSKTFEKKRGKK
Result type: pIC50
On this scale, pIC50 is minus log10 of a concentration expressed in M (mol/L).

Answered cases to consult:
| Smiles | Reported value |
| --- | --- |
| CCc1cccc(CC)c1NC(=O)c1nn(C)c2c1CCc1cnc(Nc3ccc(C(=O)N4CCC(N(C)C)CC4)cc3OC(F)(F)F)nc1-2 | 6.69 |
| CCc1cccc(CC)c1NC(=O)c1nn(C)c2c1CCc1cnc(Nc3ccc(C(=O)NCCN(C)C)cc3OC)nc1-2 | 7.48 |
| COc1ccccc1Nc1ncc2c(n1)-c1c(c(C(N)=O)nn1C)CC2 | 7.18 |
| CCc1cccc(CC)c1NC(=O)c1nn(C)c2c1CCc1cnc(Nc3ccc(C(=O)N4CCC[C@H]4CN4CCCC4)cc3OC)nc1-2 | 7.14 |
| CCc1cccc(CC)c1NC(=O)c1nn(C)c2c1CCc1cnc(Nc3ccccc3)nc1-2 | 6.28 |
| CCc1cccc(CC)c1NC(=O)c1nn(C)c2c1CCc1cnc(Nc3ccc(C(=O)N4CCC[C@@H]4CN4CCCC4)cc3OC(F)(F)F)nc1-2 | 6.41 |

# input for lookup
Kindly note the recorded pIC50 for `CCc1cccc(CC)c1NC(=O)c1nn(C)c2c1CCc1cnc(Nc3ccc(C(=O)NCCN(C)C)cc3OC(F)(F)F)nc1-2` , which is 6.89
